# Tested on: Entamoeba histolytica
# assaySummary: Antimicrobial activity against Entamoeba histolytica HM1:MMS assessed as reduction in amoeba growth
# Assay type: functional, organism-based
# conditionSet: HM-1:IMSS
For each entry below, report its pIC50 value.
One number for each entry, as −log10 of the molar value.

Use the examples below as a reference point.
{"testSmiles": "O=c1c(O)c(-c2ccc(O)cc2)oc2cc(O)cc(O)c12", "pIC50": 6.64}
{"testSmiles": "C[C@]12C[C@H](c3ccoc3)OC(=O)[C@H]1CC[C@@]13COC(=O)C1=CC=C[C@H]32", "pIC50": 4.56}

Incoming: Supply reported pIC50 belonging to this compound: "Cc1ncc([N+](=O)[O-])n1CCO"
Outgoing: 4.64

Origin of the recorded values: ChEMBL document CHEMBL4673317
